test system: Lewis lung carcinoma i.m., BDF1 mice, T/C %; test: NCI In Vivo Anticancer Drug Screen. Data for tumor model Lewis Lung Carcinoma (intramuscular) in B6D2F1 (BDF1) mice; settings: endpoint: median survival time; dose: 1.25 mg/kg/injection; schedule: Q01DX011 (ip); vehicle: saline; higher = longer survival
Results filed as inconclusive are left out.

SMILES_NOTATION	TEST_TARGET	T/C
Cc1ccc2c(C)c3c(ccc4ccccc43)c[n+]2c1	Lewis lung carcinoma i.m., BDF1 mice, T/C %	106 % of control
C[C@@H]1O[C@@H](O[C@H]2CC[C@]3(C=O)[C@H]4CC[C@]5(C)[C@@H](c6ccc(=O)oc6)CC[C@]5(O)[C@@H]4CC[C@]3(O)C2)[C@H](O)[C@H](O)[C@H]1O[C@@H]1O[C@H](CO)[C@@H](O)[C@H](O)[C@H]1O	Lewis lung carcinoma i.m., BDF1 mice, T/C %	98 % of control
C(=C\c1ccccc1)/C[P+](c1ccccc1)(c1ccccc1)c1ccccc1	Lewis lung carcinoma i.m., BDF1 mice, T/C %	107 % of control
CCCCCCCCCCCCn1c(C)nc2ccccc21	Lewis lung carcinoma i.m., BDF1 mice, T/C %	98 % of control
CC1(C)N=C(N)N=C(N)N1c1ccc(CCCCc2ccc(Cl)cc2Cl)cc1	Lewis lung carcinoma i.m., BDF1 mice, T/C %	110 % of control

====

test system: Lewis lung carcinoma i.m., BDF1 mice, T/C %; assay: NCI In Vivo Anticancer Drug Screen. Data for tumor model Lewis Lung Carcinoma (intramuscular) in B6D2F1 (BDF1) mice; conditions: endpoint: median survival time; dose: 0.5 mg/kg/injection; schedule: Q01DX011 (ip); vehicle: saline; higher = longer survival
Records with an inconclusive call do not appear.
List of T/C values.

COMPOUND	TEST_TARGET	T/C
COc1cc([C@@H]2c3cc4c(cc3[C@@H](OC3OC5COC(C)OC5C(O)C3O)[C@H]3COC(=O)[C@H]23)OCO4)cc(OC)c1O (stereo not given in full)	Lewis lung carcinoma i.m., BDF1 mice, T/C %	98 % of control
CCCCCCCCCCCCCC[n+]1ccccc1	Lewis lung carcinoma i.m., BDF1 mice, T/C %	100 % of control
CCCCCCCCCCCC(c1ccccc1)[N+](C)(C)Cc1ccccc1 (stereo not given)	Lewis lung carcinoma i.m., BDF1 mice, T/C %	91 % of control
COc1cc([C@@H]2c3cc4c(cc3[C@@H](OC3OC5CO[C@@H](c6cccs6)OC5C(O)C3O)[C@H]3COC(=O)[C@H]23)OCO4)cc(OC)c1O (stereo not given in full)	Lewis lung carcinoma i.m., BDF1 mice, T/C %	104 % of control
C1CN1c1nc(N2CC2)nc(N2CC2)n1	Lewis lung carcinoma i.m., BDF1 mice, T/C %	122 % of control

====

system: Lewis lung carcinoma i.m., BDF1 mice, T/C %; test: NCI In Vivo Anticancer Drug Screen. Data for tumor model Lewis Lung Carcinoma (intramuscular) in B6D2F1 (BDF1) mice; conditions: endpoint: median survival time; dose: 64.0 mg/kg/injection; schedule: Q01DX009 (ip); vehicle: water; higher = longer survival
Records with an inconclusive call do not appear.
RECORDED_METRIC: T/C

MOLECULE	VALUE_MEASURED
COC(=O)C1Cc2cncn2C(=O)N1 (centres undefined)	98 % of control
CCOC(=O)C(CS)NC(=O)CCNC(C)=O (centres undefined)	124 % of control
CCOC(=O)c1nc(C)[nH]c(=O)c1C	100 % of control
Cc1nc(N)c(C)c(C(=O)O)n1	92 % of control
